# System: NCI-H727
# EXPERIMENT_DESCRIPTION: relative viability (nuclei count vs DMSO), 5 days (fraction); higher = more cells survive
# REPORTED_CONDITIONS: first compound 2 µM
Entries and their relative viability values follow.
PARAMETER: relative viability

MOLECULE	RESULT_VALUE
Cc1csc(=NC2CCCCC2)n1/N=C/c1ccc(O)c(O)c1O [MIM1] + O=C(c1cc(Cc2n[nH]c(=O)c3ccccc23)ccc1F)N1CCN(C(=O)C2CC2)CC1 [Olaparib] (partner 8 µM)	0.526
CN1CCN(CCOc2cc(OC3CCOCC3)c3c(Nc4c(Cl)ccc5c4OCO5)ncnc3c2)CC1 [Saracatinib] + Cc1cc(Nc2cc(N3CCN(C)CC3)nc(Sc3ccc(NC(=O)C4CC4)cc3)n2)n[nH]1 [Tozasertib] (partner 0.1 µM)	0.454
CN1CCN(CCOc2cc(OC3CCOCC3)c3c(Nc4c(Cl)ccc5c4OCO5)ncnc3c2)CC1 [Saracatinib] + CC(C)C[C@H](NC(=O)[C@H](Cc1ccccc1)NC(=O)c1cnccn1)B(O)O [Bortezomib] (partner 0.002 µM)	0.506
CN1CCN(CCOc2cc(OC3CCOCC3)c3c(Nc4c(Cl)ccc5c4OCO5)ncnc3c2)CC1 [Saracatinib] + CC(=O)Nc1cccc(-n2c(=O)n(C3CC3)c(=O)c3c(Nc4ccc(I)cc4F)n(C)c(=O)c(C)c32)c1 [Trametinib] (partner 0.02 µM)	0.308
Cc1csc(=NC2CCCCC2)n1/N=C/c1ccc(O)c(O)c1O [MIM1] + CC1(C)CCC(c2ccc(Cl)cc2)=C(CN2CCN(c3ccc(C(=O)NS(=O)(=O)c4ccc(N[C@H](CCN5CCOCC5)CSc5ccccc5)c(S(=O)(=O)C(F)(F)F)c4)cc3)CC2)C1 [Navitoclax] (partner 0.5 µM)	0.324
Cc1csc(=NC2CCCCC2)n1/N=C/c1ccc(O)c(O)c1O [MIM1] + CC(=O)c1c(C)c2cnc(Nc3ccc(N4CCNCC4)cn3)nc2n(C2CCCC2)c1=O [Palbociclib] (partner 0.5 µM)	0.605
CN1CCN(CCOc2cc(OC3CCOCC3)c3c(Nc4c(Cl)ccc5c4OCO5)ncnc3c2)CC1 [Saracatinib] + O=C(CCCCCCC(=O)Nc1ccccc1)NO [Vorinostat] (partner 1 µM)	0.888
CN1CCN(CCOc2cc(OC3CCOCC3)c3c(Nc4c(Cl)ccc5c4OCO5)ncnc3c2)CC1 [Saracatinib] + Cc1nc(Nc2ncc(C(=O)Nc3c(C)cccc3Cl)s2)cc(N2CCN(CCO)CC2)n1 [Dasatinib] (partner 0.075 µM)	0.356
Cc1csc(=NC2CCCCC2)n1/N=C/c1ccc(O)c(O)c1O [MIM1] + COc1cccc2cc(-c3nc([C@H]4CC[C@H](C(=O)O)CC4)n4ncnc(N)c34)[nH]c12 [OSI-027] (partner 0.5 µM)	0.599
Cc1csc(=NC2CCCCC2)n1/N=C/c1ccc(O)c(O)c1O [MIM1] + Cc1cc(Nc2cc(N3CCN(C)CC3)nc(Sc3ccc(NC(=O)C4CC4)cc3)n2)n[nH]1 [Tozasertib] (partner 0.1 µM)	0.592
CN1CCN(CCOc2cc(OC3CCOCC3)c3c(Nc4c(Cl)ccc5c4OCO5)ncnc3c2)CC1 [Saracatinib] + NC(=O)Nc1cc(-c2cccc(F)c2)sc1C(=O)N[C@H]1CCCNC1 [AZD7762] (partner 0.2 µM)	0.401
CN1CCN(CCOc2cc(OC3CCOCC3)c3c(Nc4c(Cl)ccc5c4OCO5)ncnc3c2)CC1 [Saracatinib] + CS(=O)(=O)CCNCc1ccc(-c2ccc3ncnc(Nc4ccc(OCc5cccc(F)c5)c(Cl)c4)c3c2)o1 [Lapatinib] (partner 2 µM)	0.587

Attribution: the supplement of paper PMC10307832
